Test system: 439559-082-T-J2-PDC spheroids viability;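 further: spheroids exposed to the agents for 7 days before readout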
Assay: Anticancer human tumor 439559-082-T-J2-PDC patient-derived colon adenocarcinoma cell line growth inhibition [GQUAD]
Settings: second compound 3.16 µM; first compound 0.316 µM; stronger effect = lower value
One threshold, 60%, splits the recorded viability, T/C values: lower ones are Y, equal or higher ones are N.

Worked examples follow.
MOLECULE: CC1COCCN1c1cc(-c2ccnn2C)c2ccnc(-c3ccn[nH]3)c2n1 (stereo not given) + CN(C)c1ccc(Nc2c3ccc(NC(=O)CCN4CCCC4)cc3nc3cc(NC(=O)CCN4CCCC4)ccc23)cc1
CATEGORY_LABEL: Y
--
MOLECULE: Cc1[nH]c2ccccc2c1CCNCc1ccc(/C=C/C(=O)NO)cc1 + Cc1[nH]c2ccc(F)cc2c1-c1nc2c3cccnc3c3ncccc3c2[nH]1
CATEGORY_LABEL: N

INPUT: Regarding COc1ncnc(C2CC2)c1-c1ncc2cnn(Cc3ccc(-c4nc(C(F)(F)F)cn4C(C)C)cc3)c2n1 + Cc1cnc(CNC(=O)c2c(=O)c3ccc(N4CCCN(C)CC4)nc3n3c2sc2ccccc23)cn1 , kindly confirm whether its viability, T/C is beneath 60%.
OUTPUT: N
